target: Human recombinant Acetyl-CoA Carboxylase 1 (ACC1) (Homo sapiens); assay: Assay X: ACC1 inhibition, inorganic phosphate (malachite green); type: biochemical; conditions: Assay X: 37° C., 1.5 h, 5 min pre-incubation
Parameter: IC50. Scope: all listed entries.
Write the number in µM without appending the unit.

Solved cases below.
• CN1CCN(c2ccc(-c3cc(C(=O)NC[C@H]4CC[C@H](CNC(=O)OCC5CCOC5)CC4)c4ccccc4n3)cn2)CC1 (stereo partly drawn) [Example 126] = 1.67
• CC(CNc1ccc(-c2cc(C(=O)NC[C@H]3CC[C@H](CNC(=O)OC(C)(C)C)CC3)c3ccccc3n2)cn1)C(=O)O (relative stereo) [Example 158] = 3.87
• CN(CCO)CCC1CCN(c2cc(C(=O)NC[C@H]3CC[C@H](CNC(=O)OC(C)(C)C)CC3)c3ccccc3n2)CC1 [Example 232] = 1.29
• CC(C)(C)OC(=O)NC[C@H]1CC[C@H](CNC(=O)c2cc(-c3ccc(OCC(N)=O)nc3)nc3ccccc23)CC1 [Example 178] = 1.55
• CN(C)CCOc1ccc(-c2cc(C(=O)NC[C@H]3CC[C@H](CNC(=O)O[C@H]4CCOC4)CC3)c3ccccc3n2)cn1 [Example 196] = 3.48

stdin: Looking for the measured IC50 of CCNC(=O)Nc1sc2ccccc2c1C(=O)NC[C@H]1CC[C@H](CNC(=O)OC(C)(C)C)CC1 [Example 223] , can you help?
stdout: 1.16
